# Test system: HCT116;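 note: Luminescence-based viability readout, five doses per compound, normalized against on-plate DMSO and empty-well controls, followed by dose-response curve fitting for every drug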
# protocol_summary: efficacy (fitted maximal change in viability relative to DMSO control); higher = less cytotoxic (negative = loss of viability)
# stated_conditions: 48 h
Binning rule for recorded efficacy: bottom end: < -70%; midrange: ≥ -70% and < -30%; top end: ≥ -30%

Before answering, review these 5 worked examples.
[
  {
    "compound": "CN(C)CCNC(=O)NC[C@H]1CC[C@@H]2[C@H](O1)c1cc(C(F)(F)F)ccc1N[C@H]2c1ccccc1",
    "assigned_class": "midrange"
  },
  {
    "compound": "C[C@@H]1CC[C@@]2(CC[C@]3(C)\\C(=C/C[C@@H]4[C@@]5(C)CC[C@H](O)C(C)(C)[C@@H]5CC[C@@]34C)[C@@H]2[C@H]1C)C(O)=O",
    "assigned_class": "top end"
  },
  {
    "compound": "CC1(C)S[C@H]2[C@H](NC(=O)[C@@H](N)c3ccc(O)cc3)C(=O)N2[C@H]1C(=O)O [Amoxicillin sodium]",
    "assigned_class": "top end"
  },
  {
    "compound": "C[C@@H]1CN(Cc2ccc(F)cc2)[C@@H](C)CN1C(=O)c1cc2c(C(=O)C(=O)N(C)C)cn(C)c2cc1Cl",
    "assigned_class": "midrange"
  },
  {
    "compound": "Cn1nccc1Nc1nccc(-c2cc3c(s2)C(C)(C)N(CCN2CCOCC2)C3=O)n1",
    "assigned_class": "midrange"
  }
]

Request: Given CN1C(=O)/C=C(/NCCN(CCO)CCCC2=CC=C(C=C2)[N+]([O-])=O)N(C)C1=O , name the class its efficacy places it in.
Result: top end
